Assay: Acute toxicity in po dosed dog administered as single dose for 28 days
Format: organism-based, Canis lupus familiaris
Details: in vivo, time 28 day
Value Type: LD50 at 672 h (µmol/kg)
All answers are understood in µmol/kg, so give the number only.

For this molecule ( CN(C)CC/C=C/c1cccnc1 ), measured LD50 at 672 h is 1.8e+06

* * *

Target: Neuronal acetylcholine receptor; alpha4/beta2 (Homo sapiens, UniProt P17787+P43681)
Sequence (P17787 whole entry): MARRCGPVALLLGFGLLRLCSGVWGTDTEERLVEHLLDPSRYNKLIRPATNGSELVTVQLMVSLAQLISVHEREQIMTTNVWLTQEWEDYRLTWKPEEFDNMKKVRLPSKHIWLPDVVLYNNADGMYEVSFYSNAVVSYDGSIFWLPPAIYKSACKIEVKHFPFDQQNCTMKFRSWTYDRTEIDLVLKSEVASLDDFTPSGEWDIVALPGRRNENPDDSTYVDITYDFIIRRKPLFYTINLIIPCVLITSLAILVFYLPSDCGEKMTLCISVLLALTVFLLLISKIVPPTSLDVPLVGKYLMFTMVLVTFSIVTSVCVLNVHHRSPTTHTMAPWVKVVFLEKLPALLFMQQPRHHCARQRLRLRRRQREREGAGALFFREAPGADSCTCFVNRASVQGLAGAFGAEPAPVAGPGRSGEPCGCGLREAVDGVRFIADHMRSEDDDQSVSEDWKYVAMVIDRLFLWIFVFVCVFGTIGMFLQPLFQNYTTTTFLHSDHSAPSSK
Sequence (P43681 whole entry): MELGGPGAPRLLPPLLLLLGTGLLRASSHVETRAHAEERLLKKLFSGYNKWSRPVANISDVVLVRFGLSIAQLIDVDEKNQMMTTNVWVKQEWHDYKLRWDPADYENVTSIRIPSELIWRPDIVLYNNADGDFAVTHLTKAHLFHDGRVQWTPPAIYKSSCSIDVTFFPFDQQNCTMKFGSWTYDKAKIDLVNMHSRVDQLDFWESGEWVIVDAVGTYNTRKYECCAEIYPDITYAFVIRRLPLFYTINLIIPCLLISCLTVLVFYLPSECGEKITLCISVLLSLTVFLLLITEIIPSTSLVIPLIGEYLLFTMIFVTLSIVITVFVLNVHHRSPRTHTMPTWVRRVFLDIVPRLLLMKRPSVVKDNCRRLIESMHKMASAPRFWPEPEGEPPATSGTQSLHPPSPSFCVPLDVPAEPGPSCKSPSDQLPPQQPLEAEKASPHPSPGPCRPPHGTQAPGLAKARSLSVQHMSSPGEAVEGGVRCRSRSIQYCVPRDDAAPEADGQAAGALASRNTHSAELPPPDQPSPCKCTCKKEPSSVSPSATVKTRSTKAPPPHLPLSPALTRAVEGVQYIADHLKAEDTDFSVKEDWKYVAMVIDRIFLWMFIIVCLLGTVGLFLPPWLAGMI
Value Type: pEC50
# log scale: pEC50 equals minus log10 of the concentration in mol/L

For this molecule ( CN1CC=CC[C@H]1c1cccnc1 ), measured pEC50 is 5.21

* * *

Molecular target: 5-hydroxytryptamine receptor 3A (Homo sapiens, UniProt P46098)
Sequence (P46098 whole entry): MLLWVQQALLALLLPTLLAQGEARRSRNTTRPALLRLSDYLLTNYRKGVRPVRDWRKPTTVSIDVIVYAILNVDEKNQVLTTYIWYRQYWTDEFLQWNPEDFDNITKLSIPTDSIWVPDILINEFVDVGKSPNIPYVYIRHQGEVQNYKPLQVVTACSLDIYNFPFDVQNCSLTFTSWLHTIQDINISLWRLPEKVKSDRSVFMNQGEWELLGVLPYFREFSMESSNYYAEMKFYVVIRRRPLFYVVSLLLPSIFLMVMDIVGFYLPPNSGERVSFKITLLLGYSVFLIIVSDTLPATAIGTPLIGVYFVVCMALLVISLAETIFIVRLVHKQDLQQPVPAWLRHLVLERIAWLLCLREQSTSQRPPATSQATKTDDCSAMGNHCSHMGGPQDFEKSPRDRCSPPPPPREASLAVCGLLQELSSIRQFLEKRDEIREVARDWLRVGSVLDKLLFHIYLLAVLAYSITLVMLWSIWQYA
Value Type: IC50

Entry CN(C)CC/C=C/c1cccnc1 ; assay system 5-hydroxytryptamine receptor 3A (Homo sapiens, UniProt P46098); IC50 recorded at > 10 µM

* * *

Assay: Half life in human
Format: ADME
Value Type: half-life (h)
All answers are understood in h, so give the number only.

For this compound ( CN1C(=O)CC[C@H]1c1cccnc1 [COTININE] ), measured half-life is 19

* * *

Experiment: Displacement of [3H]nicotine from Leukotriene B4 receptor (unknown origin)
Parameters: species or system Homo sapiens
pIC50: −log10 of the molar value.
Value Type: pIC50

For this molecule ( CN(C)CC/C=C/c1cccnc1 ), measured pIC50 is < 5.00

* * *

Please provide measured pIC50 for the entries that follow.
# log scale: pIC50 equals minus log10 of the concentration in mol/L

Entry CC1=C[C@@H]2Cc3[nH]c(=O)ccc3[C@]3(C1)NCCC[C@H]23 ; assay system Acetylcholinesterase (Homo sapiens, UniProt P22303); pIC50 recorded at 5.59

Entry CCCCCCCCCCCCCCCCc1cc[n+](C)cc1C(=O)[O-] ; assay system Acetylcholinesterase (Homo sapiens, UniProt P22303); pIC50 recorded at 2.59

Entry CCCCCCCCCCCCCCCCc1c(C(=O)[O-])ccc[n+]1C ; assay system Acetylcholinesterase (Homo sapiens, UniProt P22303); pIC50 recorded at 2.68

Entry CCCCCCCCCCCCCCCCc1ccc(C(=O)[O-])c[n+]1C ; assay system Acetylcholinesterase (Homo sapiens, UniProt P22303); pIC50 recorded at 2.55

* * *

Heads up, these compounds all have pKi values measured for Neuronal acetylcholine receptor; alpha4/beta2 (Homo sapiens, UniProt P17787+P43681).
# log scale: pKi equals minus log10 of the concentration in mol/L

For this compound ( O=c1cccc2n1C[C@@H]1CNC[C@H]2C1 [CYTISINICLINE] ), measured pKi is 9.55

For this compound ( C[C@@H]1CC2N(C)CC3c4cccc(=O)n4CC2(O)C31 (stereo not given in full) ), measured pKi is 7.06

For this compound ( CN1CC2c3cccc(=O)n3CC3C2[C@H](CO)CC31 (stereo not given in full) ), measured pKi is 8.89

For this compound ( C[C@@H]1CC2C3Cn4c(cccc4=O)C(CN2C)C31 (stereo not given in full) ), measured pKi is 9.49

For this compound ( C[C@@H]1CC2NCC3c4cccc(=O)n4CC2C31 (stereo not given in full) ), measured pKi is 8.80
